Test: Inhibition of gamma-secretase assessed as inhibition of Abeta40 generation at 1 uM
Form field: inhibition (one value per entry).
parameter: inhibition (%)

1. C[C@H](NC(=O)[C@@H](NC(=O)Cc1cc(F)cc(F)c1)c1ccccc1)C(=O)NCc1ccc(C(=O)c2ccc(CNCCCCCCCC(=O)NCCCCCCCN(C)S(=O)(=O)c3ccc(C(=O)NCCCCCC(=O)CCCC[C@@H]4SC[C@@H]5NC(=O)N[C@@H]54)cc3[N+](=O)[O-])cc2)cc1 | 62.3
2. C[C@H](NC(=O)Cc1cc(F)cc(F)c1)C(=O)N[C@H](C(=O)OC(C)(C)C)c1ccccc1 | 77.4
3. C[C@H](NC(=O)[C@@H](NC(=O)Cc1cc(F)cc(F)c1)c1ccccc1)C(=O)NCc1ccc(C(=O)c2ccc(CNCCCCCCCC(=O)NCCCN(C)S(=O)(=O)c3ccc(C(=O)NCCCCCC(=O)CCCC[C@@H]4SC[C@@H]5NC(=O)N[C@@H]54)cc3[N+](=O)[O-])cc2)cc1 | 62.8
4. C[C@H](NC(=O)[C@@H](NC(=O)Cc1cc(F)cc(F)c1)c1ccccc1)C(=O)NCc1ccc(C(=O)c2ccc(CNCCCCCC(=O)NCCCCCCCN(C)S(=O)(=O)c3ccc(C(=O)NCCCCCC(=O)CCCC[C@@H]4SC[C@@H]5NC(=O)N[C@@H]54)cc3[N+](=O)[O-])cc2)cc1 | 78.2
